Recorded Functional assay IL-8 by entry
- target-of-assay: T1, CD27 expressed on the cell surface of HT1080_CD27 cells (human, UniProt P26842 20-260); note: test concentration or dose not given here
- T1 sequence (looked up): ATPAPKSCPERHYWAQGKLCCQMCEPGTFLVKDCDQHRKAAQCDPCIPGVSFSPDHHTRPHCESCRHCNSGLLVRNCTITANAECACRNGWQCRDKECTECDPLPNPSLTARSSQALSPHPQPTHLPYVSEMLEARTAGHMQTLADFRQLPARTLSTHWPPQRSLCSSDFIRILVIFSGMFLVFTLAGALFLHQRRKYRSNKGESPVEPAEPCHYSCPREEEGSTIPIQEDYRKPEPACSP
- test-summary: cell-based or functional assay
State just the number; it will be interpreted in abs. corr..

Let me know recorded Functional assay IL-8 for P018.S.09.A.A02 (antibody, V domains shown, V regions on human Ig constant parts; also called AB27_143) VH: QSVEESGGRLVTPGTPLTLTCTASGFSLSNFYMSWVRQAPGKGLEWIGIISTGGSAYYASWAKGRFTSSKTSTTVDLQITSPTTEDTATYFCARGSGTDGAWLYYGIDLWGPGTLVTVSS VL: DVVMTQTPASVEAAVGGTVTIKCQASENIGHALAWYQQKPGQPPKLLIYRTSTLASGVPSRFSGSGSGTQFSLTISDLDSADAATYFCQINYGGGSGGYFAFGGGTEVVVK , thanks.
0.839

Let me know recorded Functional assay IL-8 for P018.S.10.A.C02 (antibody, V domains shown, V regions on human Ig constant parts; also called AB27_171) VH: QSVEESGGRLVTPGTPLTLTCTVSGIDLSNYAMSWVRQTPGKGLEWIGAIGIGGNTYYASWAKGRFTISRTSTMVDLKVASPTPEDTATYFCARHAGAGVVNWLDLWGQGTLVTVSS VL: DVVMTQTPASVSEPVGGTVTIKCQASQSIGSNLAWYQQKPGQPPKLLIYAASDLASGVPSRFSGSGSGTEFTLTISGVQSDDAATFYCQTYGSGSFSSFNLFGGGTEVVVK , thanks.
0.631

Let me know recorded Functional assay IL-8 for P018.S.10.A.F04 (antibody, V domains shown, V regions on human Ig constant parts; also called AB27_180) VH: QSVEESGGRLVTPGTPLTLTCTASGFYLSSHYMSWVRQAPGKGLEWIGIIYATGIASYANWAKGRFTISKTSTTVSLKMTSPTTEDTATYFCARYDSQDYYGYGNLWGPGTLVTVSS VL: AYDMTQTPASVEVAVGGTVTIKCQASQNIYNNLAWYQQKPGQRPKLLIYRASTLASGVSSQFKGSGSGTEYTLTISGVESADAATYYCQQGYSVHDVYNTFGGGTEVVVK , thanks.
0.273
